# EXPERIMENT_DESCRIPTION: Cytotoxicity against human PBMC cells assessed as cell growth inhibition measured after 72 hrs by sulforhodamine B assay
# Type: cell-based
REPORTED_ENDPOINT: GI50 at 72 h

# STRUCTURE_STRING, MEASUREMENT
data = [
    ("COc1cccc(N2CCN(C(=O)n3c4ccccc4c(=O)c4ccccc43)CC2)c1", "> 10 µM"),
]

* * *

# EXPERIMENT_DESCRIPTION: Inhibition of porcine brain tubulin polymerization assessed as reduction in tubulin assembly at 37 degreeC measured after 40 mins in presence of GTP by turbidimetric analysis
# Set-up: species or system Sus scrofa
pIC50: −log10 of the molar value.

# STRUCTURE_STRING, pIC50
measured = [
    ("O=C(N1CCN(c2ccccc2)CC1)n1c2ccccc2c(=O)c2ccccc21", 6.05),
    ("O=C(N1CCN(c2cccc(Br)c2)CC1)n1c2ccccc2c(=O)c2ccccc21", 6.16),
    ("CC[C@]1(O)C[C@H]2CN(CCc3c([nH]c4ccccc34)[C@@](C(=O)OC)(c3cc4c(cc3OC)N(C)[C@H]3[C@@](O)(C(=O)OC)[C@H](OC(C)=O)[C@]5(CC)C=CCN6CC[C@]43[C@@H]65)C2)C1", 6.89),
    ("COc1cccc(N2CCN(C(=O)n3c4ccccc4c(=O)c4cc([N+](=O)[O-])ccc43)CC2)c1", 5.38),
]

Value source: ChEMBL document CHEMBL4680289
